These entries and their values trace back to patent US20230248834A1.

# targetEntity: EGFR L858R/T790M/C797S (Homo sapiens, UniProt P00533, C797S/L858R/T790M)
# Construct: expressed in transfected cells; host or cells: BaF3-LTC
# Sequence (P00533 25-1210 T790M/C797S/L858R): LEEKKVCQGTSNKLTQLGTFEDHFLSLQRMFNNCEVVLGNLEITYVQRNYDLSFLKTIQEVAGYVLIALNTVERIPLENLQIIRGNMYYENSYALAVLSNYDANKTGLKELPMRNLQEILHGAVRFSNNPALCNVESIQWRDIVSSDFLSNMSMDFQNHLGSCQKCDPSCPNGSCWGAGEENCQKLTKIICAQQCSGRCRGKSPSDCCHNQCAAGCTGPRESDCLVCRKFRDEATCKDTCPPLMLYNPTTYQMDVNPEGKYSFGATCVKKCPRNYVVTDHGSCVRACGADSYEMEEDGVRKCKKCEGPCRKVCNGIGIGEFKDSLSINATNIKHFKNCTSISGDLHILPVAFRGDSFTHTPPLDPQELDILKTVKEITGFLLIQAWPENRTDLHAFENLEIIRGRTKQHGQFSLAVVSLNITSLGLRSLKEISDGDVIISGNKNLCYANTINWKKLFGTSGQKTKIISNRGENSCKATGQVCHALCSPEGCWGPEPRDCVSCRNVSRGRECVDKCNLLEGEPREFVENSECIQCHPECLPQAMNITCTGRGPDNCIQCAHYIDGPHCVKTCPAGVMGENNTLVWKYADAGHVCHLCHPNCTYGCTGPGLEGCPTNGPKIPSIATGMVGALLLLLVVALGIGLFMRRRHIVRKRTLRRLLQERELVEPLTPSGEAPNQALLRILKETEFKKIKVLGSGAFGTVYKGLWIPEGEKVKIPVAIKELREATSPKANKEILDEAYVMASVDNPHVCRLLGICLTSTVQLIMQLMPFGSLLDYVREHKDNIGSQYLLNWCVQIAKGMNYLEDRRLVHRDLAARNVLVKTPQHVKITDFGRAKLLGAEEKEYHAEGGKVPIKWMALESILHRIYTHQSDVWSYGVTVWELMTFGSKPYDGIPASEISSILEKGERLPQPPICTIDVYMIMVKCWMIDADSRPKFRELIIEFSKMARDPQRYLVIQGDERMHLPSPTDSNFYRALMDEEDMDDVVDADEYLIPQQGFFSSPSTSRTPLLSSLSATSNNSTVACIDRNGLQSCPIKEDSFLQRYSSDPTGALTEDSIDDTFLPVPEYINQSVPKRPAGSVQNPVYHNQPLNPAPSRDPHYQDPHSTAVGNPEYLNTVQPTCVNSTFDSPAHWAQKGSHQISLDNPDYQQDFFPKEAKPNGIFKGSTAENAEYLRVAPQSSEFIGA
# methodNotes: EGFR degradation HTRF assay in BaF3-LTC cells
# Type: cell-based
# measurementConditions: BaF3-LTC (L858R/T790M/C797S), maximum percentage of inhibition (degradation); read-out: BaF3-LTC Dmax (%)
# Method: BaF3-LTC(L858R/T790M/C797S) cells and BaF3 LC(L858R/C797S) cells are treated with compounds diluted in 0.2% DMSO cell culture medium and incubate for 16 h, 37° C., 5% CO2. the final concentration of compounds in all assay is start with 10 uM, 5-fold dilution, total 8 doses were included. […] High control=Cell group with added DMSO and without compound, indicating microplate readings without EGFR degradation; […]
Measured Dmax, listed per entry for reference.
property: Dmax (%)

CCOc1cc(N2CCC(N3CCN(CCc4cc(F)c([C@H]5CCC(=O)NC5=O)c(F)c4)CC3)CC2)c(CC)cc1Nc1ncc(Br)c(Nc2ccc3nc(C)ncc3c2P(C)(C)=O)n1	95.7
CCOc1cc(N2CCC(N3CCN(CCc4cccc5c4oc(=O)n5C4CCC(=O)NC4=O)CC3)CC2)c(CC)cc1Nc1ncc(Br)c(Nc2cc(F)c3nc(CC)ccc3c2P(C)(C)=O)n1 (stereo not drawn)	95.2
CCc1ncc2c(P(C)(C)=O)c(Nc3nc(Nc4cc(C)c(N5CCC(N6CCN(CCc7cc(F)c([C@H]8CCC(=O)NC8=O)c(F)c7)CC6)CC5)cc4OC)ncc3Br)ccc2n1	93.6
